Experiment: recombinant barcode read abundance after kanamycin selection (control-corrected) (log10(CPM+1)); higher = more efficient recombination; sequences stand for … in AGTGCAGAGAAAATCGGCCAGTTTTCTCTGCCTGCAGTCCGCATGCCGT…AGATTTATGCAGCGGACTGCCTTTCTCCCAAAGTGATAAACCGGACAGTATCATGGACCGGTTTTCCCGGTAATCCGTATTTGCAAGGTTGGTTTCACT; site = the 11-nt target
Below, each entry is listed alongside its reported recombinant barcode read abundance (log10).

>  <Seq String>
CTAAAGTCTTGGGTTCTAACCTGTTGCCA (site GTAAAGTCTTG)

>  <Observed>
0.0268

$$$$
>  <Seq String>
AGAGTCTCTTGGGTTCTAACCTGTTGCTG (site AGAGTCCCTCC)

>  <Observed>
0.101

$$$$
>  <Seq String>
AAACGACCTTGGGTTCTAACCTGTTGCCT (site GAACGACCTAG)

>  <Observed>
0.0625

$$$$
>  <Seq String>
TCCAATCCTTGGGTTCTAACCTGTTGCAG (site TCCAAACCTCT)

>  <Observed>
0.114

$$$$

Q: Endpoint output: recombinant barcode read abundance (log10) of GATAGAGCTTGGGTTCTAACCTGTTGCCG (site GATATAGCTAG) . Value?
Result: 0

----------
Assay: recombinant UMI read abundance after kanamycin selection (control-corrected) (log10(CPM+1)); higher = more efficient recombination; extreme values may be limits of the assay; sequences stand for … in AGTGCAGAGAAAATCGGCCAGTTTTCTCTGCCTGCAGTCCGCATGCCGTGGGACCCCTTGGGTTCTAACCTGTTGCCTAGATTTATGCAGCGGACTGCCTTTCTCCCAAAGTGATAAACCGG…AGGTTGGTTTCACT; site = the 11-nt donor
Readout Kind: recombinant UMI read abundance (log10)
Field format: numeric only.

>  <Seq String>
GTAGGAACATGGACCGGTTTTCCCGGTAATCCGTATTTGAC (site GTAGGCACTGT)

>  <recombinant UMI read abundance (log10)>
1.3

$$$$
>  <Seq String>
CTAGTAGCATGGACCGGTTTTCCCGGTAATCCGTATTTGAC (site CTAGTAACTGT)

>  <recombinant UMI read abundance (log10)>
2.01

$$$$
>  <Seq String>
GCGCATGCATGGACCGGTTTTCCCGGTAATCCGTATTTGGT (site GGGCATGCTAC)

>  <recombinant UMI read abundance (log10)>
0.0133

$$$$

Q: Reported recombinant UMI read abundance (log10) for GCGAAGGCATGGACCGGTTTTCCCGGTAATCCGTATTTGGG (site GCGAAGCCTCC) : what is it?
Result: 0.00939

Q: Give the measured recombinant UMI read abundance (log10) of ATAAAGCCATGGACCGGTTTTCCCGGTAATCCGTATTTGAC (site ATAAAGCCTGT) .
Result: 0

----------
Experiment: recombinant UMI read abundance after kanamycin selection (control-corrected) (log10(CPM+1)); higher = more efficient recombination; extreme values may be limits of the assay; sequences stand for … in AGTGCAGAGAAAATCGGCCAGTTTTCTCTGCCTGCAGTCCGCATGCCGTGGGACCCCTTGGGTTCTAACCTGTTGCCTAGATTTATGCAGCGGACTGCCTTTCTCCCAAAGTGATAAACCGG…AGGTTGGTTTCACT; site = the 11-nt donor
In this section we review reported recombinant UMI read abundance (log10) values for a set of sequences.

>  <Seq String>
CGATCGGCATGGACCGGTTTTCCCGGTAATCCGTATTTGTT (site CGATCGACTAA)

>  <Observed>
0.00492

$$$$
>  <Seq String>
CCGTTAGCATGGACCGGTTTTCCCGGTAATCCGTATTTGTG (site ACGTTAGCTCA)

>  <Observed>
0.0114

$$$$
>  <Seq String>
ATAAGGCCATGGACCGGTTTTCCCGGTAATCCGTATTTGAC (site ATGAGGCCTGT)

>  <Observed>
0

$$$$
>  <Seq String>
ACCGATACATGGACCGGTTTTCCCGGTAATCCGTATTTGAA (site ACCGATACTTT)

>  <Observed>
1.6

$$$$
>  <Seq String>
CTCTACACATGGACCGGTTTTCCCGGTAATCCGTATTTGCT (site CTCTGCACTAG)

>  <Observed>
0.00734

$$$$
>  <Seq String>
TTTCGAGCATGGACCGGTTTTCCCGGTAATCCGTATTTGCA (site CTTCGAGCTTG)

>  <Observed>
0.13

$$$$
>  <Seq String>
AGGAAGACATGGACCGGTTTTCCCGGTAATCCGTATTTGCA (site AGGGAGTCTTG)

>  <Observed>
0

$$$$
>  <Seq String>
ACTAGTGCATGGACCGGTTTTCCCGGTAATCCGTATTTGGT (site GCTAGTGCTAC)

>  <Observed>
0.338

$$$$

Switching to the query record.
Q: Consider the sequence GACGATTCATGGACCGGTTTTCCCGGTAATCCGTATTTGTT (site GAAGATTCTAA) and give its measured recombinant UMI read abundance (log10).
Result: 0.149
